result-type: melting point

> print(dat)
                               entry.smiles  value.observed
1     COC(=O)c1c(I)ccc2c(=O)c3ccccc3[nH]c12   202 to 204 °C
2  COC(=O)Cn1c(CCc2ccccc2)ccc(NC(=O)CCc2ccccc2)c1=O   105 to 108 °C
3                  Oc1ccnc(Nc2cccc(Cl)c2)n1   250 to 252 °C
4                COC(=O)c1c(C)oc2ccccc2c1=O   116 to 118 °C
5  Cn1c(CC(=O)O)ccc1C(=O)c1ccc(C(F)(F)F)cc1   152 to 154 °C
6  O=C(NCC(c1ccccc1)c1ccccc1)N1CCC(=C(c2ccccc2)c2ccccc2)CC1   158 to 160 °C
7  COc1ccc(Cn2cnc3c(Cl)nc(C(F)(F)F)nc32)cc1   104 to 106 °C
8        CCCc1cc(-c2ccc(Cl)cc2)nc2c(I)cnn12   108 to 110 °C
